- TESTED SYSTEM: chimeric human H3 receptor (Homo sapiens, UniProt Q9Y5N1)
- Construct: made in house; host or cells: Sf9 insect cells (baculovirus); P2 membrane preparation
- Sequence (Q9Y5N1 with tags, fused parts or gaps): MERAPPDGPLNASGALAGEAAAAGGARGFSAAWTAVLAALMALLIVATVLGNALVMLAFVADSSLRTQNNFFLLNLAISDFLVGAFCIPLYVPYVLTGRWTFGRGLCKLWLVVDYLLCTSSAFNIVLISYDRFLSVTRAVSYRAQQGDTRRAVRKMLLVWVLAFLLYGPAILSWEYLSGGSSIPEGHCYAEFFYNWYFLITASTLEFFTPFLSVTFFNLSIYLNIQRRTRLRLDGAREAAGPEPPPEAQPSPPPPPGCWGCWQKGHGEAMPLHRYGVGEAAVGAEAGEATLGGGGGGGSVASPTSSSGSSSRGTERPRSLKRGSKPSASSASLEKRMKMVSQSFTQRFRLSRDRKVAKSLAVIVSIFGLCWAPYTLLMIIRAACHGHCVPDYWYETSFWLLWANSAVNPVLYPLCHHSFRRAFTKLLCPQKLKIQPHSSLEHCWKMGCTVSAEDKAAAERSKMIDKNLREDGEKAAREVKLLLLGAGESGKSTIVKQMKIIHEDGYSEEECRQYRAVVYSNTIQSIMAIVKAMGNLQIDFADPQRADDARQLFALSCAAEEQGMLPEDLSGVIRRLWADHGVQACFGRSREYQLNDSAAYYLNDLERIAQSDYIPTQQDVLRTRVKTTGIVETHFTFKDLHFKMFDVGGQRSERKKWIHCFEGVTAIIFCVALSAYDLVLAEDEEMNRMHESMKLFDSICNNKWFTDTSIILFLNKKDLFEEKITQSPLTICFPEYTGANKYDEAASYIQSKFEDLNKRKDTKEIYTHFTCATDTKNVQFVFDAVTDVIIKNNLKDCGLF
- ASSAY TEXT: Chimeric human H3 receptor screening GTP binding assay (inhibition of histamine-stimulated GTP-gamma35S binding, Example 8)
- Assay type: biochemical
- CONDITION INFO: Table II "Ki", symbol †, 4 μM of the compound, 1 μM histamine, read-out: percent inhibition of the signal obtained with 1 μM histamine
Provide the recorded inhibition at 4 µM for the entries that follow.

As a guide, the following entries are already answered.
compound=O=C(CN1CCc2cc(-c3cncnc3)ccc2C1)N1CCN(C2CCOCC2)CC1 meas_value="≥ 90%"
compound=O=C(CN1CCc2cc(-c3cccc(F)c3F)ccc2C1)N1CCN(C2CCC2)CC1 meas_value="≥ 90%"
compound=O=C(CN1CCc2cc(-c3ccc(Cl)c(F)c3)ccc2C1)N1CCN(C2CCCCC2)CC1 meas_value="≥ 90%"
compound=COc1ccc(-c2ccc3c(c2)CCN(CC(=O)N2CCN(C4CCCC4)CC2)C3)c(OC)c1 meas_value="≥ 90%"
compound=C[C@H]1CN(C(=O)CN2CCc3cc(-c4cncnc4)ccc3C2)CCN1C1CCOCC1 meas_value="≥ 90%"
compound=COc1ccc(-c2ccc(-c3ccc4c(c3)CCN(CC(=O)N3CCN(C(C)C)CC3)C4)cc2)cc1 meas_value="≥ 90%"

Hey, can you go through the list below and give me inhibition at 4 µM for every item?
1. O=C(CN1CCc2cc(-c3ccc(F)cc3F)ccc2C1)N1CCN(C2CCCC2)CC1
2. COc1ccc(-c2ccc(-c3ccc4c(c3)CCN(CC(=O)N3CCN(C5CCC5)CC3)C4)cc2)cc1
3. O=C(CN1CCc2cc(-c3ccc(Oc4ccccc4)cc3)ccc2C1)N1CCN(C2CCCC2)CC1
4. O=C(CN1CCc2cc(-c3ccccc3Oc3ccccc3)ccc2C1)N1CCN(C2CCCCC2)CC1
5. CC(C)N1CCN(C(=O)CN2CCc3cc(-c4cccc(N(C)C)c4)ccc3C2)CC1
6. COc1ccc(-c2ccc3c(c2)CCN(CC(=O)N2CCN(C4CCCCC4)CC2)C3)cc1
7. O=C(CN1CCc2cc(-c3cncnc3)ccc2C1)N1C[C@@H]2C[C@H]1CN2C1CCCC1 (stereo in doubt)

Data returned:
["≥ 90%", "≥ 90%", "≥ 90%", "≥ 90%", "≥ 90%", "≥ 90%", "≥ 90%"]

====

Exercise: state measured Ki for each of the compounds provided.
- TESTED SYSTEM: chimeric human H3 receptor (Homo sapiens, UniProt Q9Y5N1)
- Construct: made in house; host or cells: Sf9 insect cells (baculovirus); P2 membrane preparation
- ASSAY TEXT: Chimeric human H3 receptor GTP binding assay (agonist-stimulated GTP-gamma35S binding, Example 7)
- Format: biochemical
- CONDITION INFO: Table II "Ki", symbol *; assay of Example 7

Would you please look over these solved cases?
compound="CC(C)CNc1ccc2c(n1)CCN(CC(=O)N1CCN(C3CCC3)CC1)C2 [Compound 651]" tested_system="chimeric human H3 receptor (Homo sapiens, UniProt Q9Y5N1)" property_measured=Ki meas_value="< 1000 nM"
compound="COc1ccc(-c2ccc3c(c2)CCN(CC(=O)N2CCN(C4CCC4)CC2)C3)cc1OC [Compound 524]" tested_system="chimeric human H3 receptor (Homo sapiens, UniProt Q9Y5N1)" property_measured=Ki meas_value="< 1000 nM"
compound="CCCOc1ccc(-c2ccc3c(c2)CCN(CC(=O)N2CCN(C4CCCC4)CC2)C3)cc1 [Compound 545]" tested_system="chimeric human H3 receptor (Homo sapiens, UniProt Q9Y5N1)" property_measured=Ki meas_value="< 1000 nM"
compound="CCOCCNc1ccc2c(n1)CCN(CC(=O)N1CCN(C3CCC3)CC1)C2 [Compound 667]" tested_system="chimeric human H3 receptor (Homo sapiens, UniProt Q9Y5N1)" property_measured=Ki meas_value="< 1000 nM"
compound="CCC(CC)CNc1ccc2c(n1)CCN(CC(=O)N1CCN(C3CCC3)CC1)C2 [Compound 660]" tested_system="chimeric human H3 receptor (Homo sapiens, UniProt Q9Y5N1)" property_measured=Ki meas_value="< 1000 nM"

Please state, for each entry, its recorded Ki.
1. COc1ccc2cc(-c3ccc4c(c3)CCN(CC(=O)N3CCN(C5CCC5)CC3)C4)ccc2c1 [Compound 509]
2. COCCNc1ccc2c(n1)CCN(CC(=O)N1CCN(C3CCC3)CC1)C2 [Compound 663]
3. CC(C)CCNc1ccc2c(n1)CCN(CC(=O)N1CCN(C3CCC3)CC1)C2 [Compound 652]
4. CCCOc1ccc(-c2ccc3c(c2)CCN(CC(=O)N2CCN(C4CCC4)CC2)C3)cc1 [Compound 544]
5. CN(C)CCc1cccc(-c2ccc3c(c2)CCN(CC(=O)N2CCN(C4CCC4)CC2)C3)c1 [Compound 644]

Data returned:
< 1000 nM
< 1000 nM
< 1000 nM
< 1000 nM
< 1000 nM

State recorded Ki for all listed compounds.
1. CC(C)c1ccc(-c2ccc3c(c2)CCN(CC(=O)N2CCN(C4CCC4)CC2)C3)cn1 [Compound 649]
2. CC1CCCCN1c1ccc2c(n1)CCN(CC(=O)N1CCN(C3CCC3)CC1)C2 (centres unmarked) [Compound 676]
3. O=C(CN1CCc2nc(NC3CCCC3)ccc2C1)N1CCN(C2CCC2)CC1 [Compound 656]
4. CC1CCCCC1N1CCN(C(=O)CN2CCc3cc(-c4cncnc4)ccc3C2)CC1 (centres unmarked) [Compound 619]
5. O=C(CN1CCc2cc(-c3nccc4ccccc34)ccc2C1)N1CCN(C2CCC2)CC1 [Compound 637]
6. CCOc1cccc(-c2ccc3c(c2)CCN(CC(=O)N2CCN(C4CCCC4)CC2)C3)c1 [Compound 483]
7. COc1ccc(-c2ccc3c(c2)CCN(CC(=O)N2CCN(C4CCCC4)CC2)C3)cc1 [Compound 521]

Data returned:
< 1000 nM
< 1000 nM
< 1000 nM
< 1000 nM
< 1000 nM
< 1000 nM
< 1000 nM

====

- TESTED SYSTEM: chimeric human H3 receptor (Homo sapiens, UniProt Q9Y5N1)
- Construct: made in house; host or cells: Sf9 insect cells (baculovirus); P2 membrane preparation
- ASSAY TEXT: Chimeric human H3 receptor GTP binding assay (agonist-stimulated GTP-gamma35S binding, Example 7)
- Type: biochemical
- CONDITION INFO: Table II; assay of Example 7
pKi: −log10 of the molar value.
I'd appreciate it if you could supply pKi values for the items below.

Check out these entries, answers already filled in.
cpd_smiles=N#Cc1ccc(-c2ncc3c(n2)CCN(CC(=O)N2CCN(C4CCC4)CC2)C3)cc1 property_measured=pKi meas_value="> 6.00"
cpd_smiles=N#Cc1ccc(-n2cc3c(n2)CCN(CC(=O)N2CCN(C4CCC4)CC2)C3)nc1 property_measured=pKi meas_value="> 6.00"

Data request: Please look at this compound and report its pKi: `N#Cc1cnc(-n2cc3c(n2)CCN(CC(=O)N2CCN(C4CCC4)CC2)C3)nc1`
Data returned: > 6.00

====

- TESTED SYSTEM: chimeric human H3 receptor (Homo sapiens)
- Construct: made in house; host or cells: Sf9 insect cells (baculovirus); P2 membrane preparation
- ASSAY TEXT: Chimeric human H3 receptor screening GTP binding assay (inhibition of histamine-stimulated GTP-gamma35S binding, Example 8)
- Format: biochemical
- CONDITION INFO: Table II "Ki", symbol †, 4 μM of the compound, 1 μM histamine, read-out: percent inhibition of the signal obtained with 1 μM histamine
Can you tell me inhibition at 4 µM for the items I'm about to list?

Each compound below has a recorded value; state its inhibition at 4 µM.
1. COc1ccc2cc(-c3ccc4c(c3)CCN(CC(=O)N3CCN(C(C)C)CC3)C4)ccc2c1
2. O=C(CN1CCc2cc(-c3ccc(F)c(Cl)c3)ccc2C1)N1CCN(C2CCCCC2)CC1

Data returned:
1: ≥ 90%; 2: ≥ 90%

Data request: Assign inhibition at 4 µM to the following record: `O=C(CN1CCc2cc(-c3ccccc3Oc3ccccc3)ccc2C1)N1CCN(C2CCCC2)CC1`
Data returned: ≥ 90%
